experimentalProtocol: yeast display, Sf9 membrane polyspecificity reagent, FACS + sequencing; frameworks hold sequencing errors
measurementKind: polyreactivity (PSR sort gate)

Known polyreactivity (PSR sort gate) results, listed for orientation:
>>> measured("QVQLVESGGGLVQAGGSLRLSCAASGITFYTYTMGWYRQAPGKERELVAAISRSSGRTYYADSVKGRFTISRDNAKNTVYLQMNSLKPEDTAVYYCAAYAVESYKYDYWGQGTQVTVSS")
"high polyreactivity"
>>> measured("QVQLVESGGGLVQAGGSLRLSCAASGRTLLQYTKGWYRQAPGKERELGAAISWSGGRTYYADSVKGRFTISRDNAKNTVYLQMNSLKPEDTAVYYCAARGLKSQYYGAKHEYGYWGLGTQVTVSS")
"high polyreactivity"
>>> measured("QDQLVESGGGLVQAVGSLRLSCAASGRIFVYNAMGGYRQAPGKEREFVATITSSGGRTYYADSVKGRFTISRDNSKNTVYLQMNSLKPEDTAVYYCAARPQNNGRNPVYRYNYWGQGTQVTVSS")
"high polyreactivity"
>>> measured("QVQLVESGGGLVQAGGSLRLSCAASGSIVNYYAMGWYRPAPGKERELVAAITSGGSTYYADSVKGRFTISRDNAKNTVYLQMNSLKAEDTAVYYCNKAFPYIYDYWGQGTQVTVSS")
"low polyreactivity"

Then there is this sequence:
Query string: Provide polyreactivity (PSR sort gate) value for the following sequence: EVHLVESGGGLVQPGGSLRLSCAASGDIYSRYRMGWYRQAPGKGREFVAAISGGSSTNYADSVKGRFTISRDNSKNTVYLQMNSLRAVDTAVSYCAAYKIDSDPRVYWGQGTQVTVSS
Result string: low polyreactivity

###

experimentalProtocol: yeast display, Sf9 membrane polyspecificity reagent, FACS + sequencing; frameworks hold sequencing errors
measurementKind: polyreactivity (PSR sort gate)

Answered cases to consult:
>>> measured("QVQLVESGGGLVQAGGSLRLSCAASGSIFGTNGMGWYRQAPGKERELVAAITRRGGSTYADSVKGRFTISRDNAKNTVYLQMNSLKPEDTAVYYCAVDQGYVVRLAWIYGYWGQGTQVSVSS")
"low polyreactivity"
>>> measured("QVQLVESGGGLVQAGGSLRLSCAASGFIFWLYALGWYRKAPGKERELVASINWSGGDTYYADSVKGRFTISRDNPKNTVYLQLNSLKPEDTAVYYCNAQVYRYRIGYDYWGQGPQVTVSS")
"low polyreactivity"
>>> measured("QVQLVESGGGLVQAGGSLSLSCAASGRTFRYYAMGWYRQAPGKERELVAAMRTRGASTYYADSVKGRFTISRDNAKNSVYLQMNSLKPEVSAVYYCAASRSGHGIIDYDSWGK")
"low polyreactivity"
>>> measured("QHQLVESGGGLVQAGGSLRLSCAASGRTSLDYAMGWYRQAPGKERELVSAIRSGGITNYADSVKGRFTISRDNAKNTVYLQLNSLKPEDTAVYYCAARVHRAYSTGSIVYYWGQGTQVNVSS")
"high polyreactivity"
>>> measured("QVQLVESGGGLVQAGGSLRLSCAASGSIFNINAMGWYRHAPGKERELVAVITSRDGRTYYADSVKGRFTISRDNAKNTVYLQMNSLKPEDTAVYYCAADVVNRHYYFWGQGTQVTVSS")
"low polyreactivity"

Query string: Tell me measured polyreactivity (PSR sort gate) for QVQLVESGGGLVQAGGSLRLSCAASGRIFSYYAMGWYRQAPGKERELVAAISTSGGNTYYADSVKGRFTISRDNAKNTVYLQMNSLLTEDTAVYYCAAAYFSSGYKYYYWGQGTQVSVSS please.
Result string: high polyreactivity

Query string: Provide measured polyreactivity (PSR sort gate) value, entry: QVQLVESGGGLVQAGGSLRLSCAASGSIFTRYAMGWYRQAPGKERELVAAITASGGRTYYADSVKGRFTISRDNAKNTVYLQMNSLKPEDTAVYYCNTYWRFTSQLPYDYWGQGTQVTVSS
Result string: high polyreactivity

Query string: State, in one line, measured polyreactivity (PSR sort gate) of QVQLEESGGGLVQAGGTLRLRCAASVIIYDDKTMGWYRQAPGKEMELVAPISSSRGSTYYADSVKGRFTISRDNAKNTVYLQMNSLKPEDTAVYYCAAAVYYTYPYIVFRNYPEFDYWGQGTQVSVSS
Result string: low polyreactivity

Query string: Identify measured polyreactivity (PSR sort gate) associated with QVQLVESGGVLVQSGVSLRLTCAASGITFNYNAMGWDSQAPGKERELVAAIRGSDSTTYYADSVKERFTISRDNAKNTVYLQMNSLKPEDTAVYYCAADYVQGFGFYYQWHYDYWGQGTQVTVSS
Result string: low polyreactivity

Query string: For the sequence QVQLVESGGGIVQAGGSLRLSCAASGITFPANAMGWYRQAPGKERELVADISESDGSTYYADSVKGRFTISRDNAKNTVYLQMNSLKPEDTAVYYCAADGTSGTRSDYWGQGTQVTVSS , give its measured polyreactivity (PSR sort gate) value.
Result string: low polyreactivity

Query string: Provide one value: measured polyreactivity (PSR sort gate) of QVQLVESGGGLVPAGGSLRLSCAASGYTFYFYAMGWYRQAPGKERELVAAITGGGTTSYADSVKGRFTISRDNAKNTVYLQMNSLKPEDTADSYCNVLFADKSDYWGQATQVTVSS
Result string: low polyreactivity

###

experimentalProtocol: yeast display, Sf9 membrane polyspecificity reagent, FACS + sequencing; frameworks hold sequencing errors
measurementKind: polyreactivity (PSR sort gate)

Example entries and their recorded answers appear below.
>>> measured("QVQLVESGGGLGQAGGSLRLSTAASGSNFRYNTMGWYRLGPGKERELVAAINISSSSTYYADSLKGRFTISRDNAKNTVYLQMNSLKPEVTAVYYCANRDYVPIATYENDDYWGQGTQVNVSS")
"low polyreactivity"
>>> measured("QVHLVESGGGLVQAGGSLRLSCAASGRTFPYNAMGWYRQAPGKERELVDAISSGGSTNYADSVKGRFTISRDNAKNTVYLQMNSLKPEDTAVYYCATKYQRRPYRYSYWGQGTQVTVSS")
"low polyreactivity"
>>> measured("QVQLVESGGGLVQAGGSLRLSCAASGFTFYYYAMGWYRQAPGKERELVAAIDTGGSTNYADSVKGRFTISRDNAKNTVYLQMNSLKPEDTAVYYCNADTPDHYGHYDYWGQGTQVTVSS")
"low polyreactivity"
>>> measured("QVQLVESGGGLVQAGGSLRLSCAASGRTFGYYAMGWYRQAPGKERELVAAITGSGGSTYYADSVKGRFTISRDNAKNTVYLQMNSLKPEDTAVYYCAVESVRTRGWIRLDYWGQGTQVTVSS")
"high polyreactivity"

Query string: In one line, give reported polyreactivity (PSR sort gate) of the entry QVQLVESGGGLVQAGGSLRLSCAASGRTFYGYTMGWYRPAPGKERELVAAITYSGDSTYYADSVKGRFTISRDNAKNTVYLQLNSLKPEDTAVYYCNAVGRYPVYWWGYYYWGQGTQVTVSS .
Result string: high polyreactivity

###

experimentalProtocol: yeast display, Sf9 membrane polyspecificity reagent, FACS + sequencing; frameworks hold sequencing errors
measurementKind: polyreactivity (PSR sort gate)

Answered examples (4):
>>> measured("QVQLVESGGGLVQAGGSLRLSCAASGFTIYGNAMGWSRQAPGKERELVAAITWRGGSTYYADSVKGRFTISRDNAKNTVYLQMNSLKPEDTAVYYCAARWLLGYYRYDYWGQGTQVTVSS")
"high polyreactivity"
>>> measured("QVQLVESGGGLVQAGGSLRLSCAASGSTFYYNAMGWYRQAPGKERELVAVITLNGGRTSYADSVKGRFTISRDNAKITVYLQMNSLKPEDTAVYYCAADRYRGYGYWGQGTQVTVSS")
"low polyreactivity"
>>> measured("QVQLVESVLGLVQAGGSLRFSCAASGSTIVRYAMVWYRPAPGKERELVAAISSSGATTYYADSVKGRFTISRDNAKNTVYLQMNSLKPEYTAVYYCDKYCRATRGLDNYWGQGTQVTVSS")
"high polyreactivity"
>>> measured("QVQLVESGGGLVQAGGSLRLSCAASGRTFALYAMGWYRQAPGKERELVAAITSGGSTNYADSVKGRFTISRDNAKNTVYVQMNSLKPEDTAVYYCNADDSSKDVIGLDYWGQGTQVTVSS")
"low polyreactivity"

Query string: Please indicate polyreactivity (PSR sort gate) recorded for QVQLGDSGGGLVQAGGSLRISCAASGNTFLYYGMGWYRQAPGKDRDLVAAITQSGGTTYYADSVHGRFTISRDNAKYTVYLQMNSQKPEDTAVYYCGATRYYYYTYVYDDRGDYWGQGTQVTVSS
Result string: low polyreactivity

Query string: Check the records and state polyreactivity (PSR sort gate) for QVQLVESGGGLVQAGGSLRLSCAASGLTFKYYAMGWYRQAPGKERELVAAINRSGSSTYYADSVKGRFTISRDNAKNTVYLQMNSLKPEDTAVYYCAKDSFTSTRQYDYWGQGTQVTVSS
Result string: low polyreactivity

Query string: Identify measured polyreactivity (PSR sort gate) corresponding to QVQLVESGGGLVQAGGSLRLSCAASGLTFRVYAMGWYRQAPGKERELVAAITGGGRTYYADSVKGRFTISRDNAKNTVYLQMNSLKPEDTAVYYCAAAGYYVWGQGTQVTVSS
Result string: high polyreactivity

Query string: Retrieve polyreactivity (PSR sort gate) measured for QVQLVESGGGLVQAGGSLRLSCAASGRIFGKYAMGWYRQAPWKERELVATISLSGVRTYYADSVKGRFTISRDNAKNTVYLQMNSLKPEDTAVYYCAAGYSSNGDYWGQGTQVTVSS and print it.
Result string: low polyreactivity

Query string: Give the measured polyreactivity (PSR sort gate) for QVQLVESGGGLVQAGGSLRLSCAASGRIFGNYAMGWSRQAPGKERELVSAITYSTGGTSTYADSVKGLFTISRDNAKNSVYLQMNSLKPEDTAVYYCAVRRQYRRAYSFSQSRYDYWGQGTQVTVSS
Result string: high polyreactivity

Query string: For the sequence QVQLVESGGGLVQAGGSLRVSCAASVRTLFGNALGWYRQAPGKERELLAAISFSGGRTEYADSVKGRFTISRDNAMNTVYLQMNSLKPEDTAVYYCAARTYSAPRNRYYYWGQGTQVTVSS , give its reported polyreactivity (PSR sort gate).
Result string: high polyreactivity

Query string: Quote polyreactivity (PSR sort gate) reported for QVQLVESGGGLVQAGGSLRLSCAASVSIFWSYAMGWSRLAPGKERELVASISRSTGRTRYADSVKGRFTFSRDNAKNTVDLQMNSLKPEDTAVYYCNAEKRGQSYRFDYWGQGTQVTVSS please.
Result string: high polyreactivity
